Hello, the source for this data is patent US20250101019A1, in case you need it.

Reported pIC50 values for a set of molecules
- measurement target: UniProtKB P22413
- Sequence (P22413 whole entry, species assumed): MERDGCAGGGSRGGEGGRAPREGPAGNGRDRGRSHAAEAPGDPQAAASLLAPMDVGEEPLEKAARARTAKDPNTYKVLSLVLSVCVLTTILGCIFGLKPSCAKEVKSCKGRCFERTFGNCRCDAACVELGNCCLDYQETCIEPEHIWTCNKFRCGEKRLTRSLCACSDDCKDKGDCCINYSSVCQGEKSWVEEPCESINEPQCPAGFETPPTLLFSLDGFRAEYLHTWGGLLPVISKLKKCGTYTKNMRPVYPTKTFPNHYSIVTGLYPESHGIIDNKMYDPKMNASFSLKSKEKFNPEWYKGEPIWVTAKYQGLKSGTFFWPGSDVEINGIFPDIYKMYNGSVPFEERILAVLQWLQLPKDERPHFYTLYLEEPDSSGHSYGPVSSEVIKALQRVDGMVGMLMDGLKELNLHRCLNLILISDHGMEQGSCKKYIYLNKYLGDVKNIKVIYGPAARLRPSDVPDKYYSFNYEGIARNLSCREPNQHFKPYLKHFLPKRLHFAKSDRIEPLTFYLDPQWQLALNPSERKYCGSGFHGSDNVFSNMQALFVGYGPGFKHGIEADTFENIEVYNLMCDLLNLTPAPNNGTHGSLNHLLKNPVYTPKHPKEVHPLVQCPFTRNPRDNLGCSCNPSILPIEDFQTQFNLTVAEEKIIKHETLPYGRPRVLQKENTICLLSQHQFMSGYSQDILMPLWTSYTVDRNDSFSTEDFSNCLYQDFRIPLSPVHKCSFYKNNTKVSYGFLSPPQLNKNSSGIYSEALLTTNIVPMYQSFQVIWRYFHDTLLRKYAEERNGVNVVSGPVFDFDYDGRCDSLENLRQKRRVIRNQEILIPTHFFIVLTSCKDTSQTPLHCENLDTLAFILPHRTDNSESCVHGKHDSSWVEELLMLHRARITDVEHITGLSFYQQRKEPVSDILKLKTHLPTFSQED
- assay info: cGAMP-Glo enzymatic assay (2′3′-cGAMP substrate, AMP-Glo readout)
- Format: biochemical
- test conditions: substrate 2′3′-cGAMP; 25° C. for 60 min; 50 mM Tris pH 8.8
pIC50: −log10 of the molar value.
value type: pIC50

INSERT INTO measurements (compound_structure_string, result) VALUES
  ('COc1ncc2c(C)cn(Cc3ccc(S(N)(=O)=O)cc3)c2c1-c1ccccc1', '> 9.00'),
  ('COc1ncc2ccn(Cc3ccc(NS(N)(=O)=O)cc3)c2c1-c1ccn(C)n1', '6.00 to 7.00'),
  ('CCc1ncc2nc(C)n(Cc3c(F)cc(S(N)(=O)=O)cc3F)c2c1-c1ccccc1', '> 9.00'),
  ('COc1ncc2ccn(Cc3ccc(S(N)(=O)=O)cc3)c2c1-c1ccccc1', '> 9.00'),
  ('Cc1ncc2nc(CN(C)C)n(Cc3c(F)cc(S(N)(=O)=O)cc3F)c2c1-c1ccccc1', '> 9.00'),
  ('COc1ncc2c(c1-c1ccccc1)N(Cc1c(F)cc(S(N)(=O)=O)cc1F)C(=O)C2', '> 9.00'),
  ('COc1ncc2cnn(Cc3ccc(S(N)(=O)=O)cc3)c2c1-c1ccccc1', '8.00 to 9.00'),
  ('Cc1ncc(-c2ccccc2)c2c1ncn2Cc1ccc(S(N)(=O)=O)cc1', '> 9.00');
